Test system: TGF-b induced Endothelin-1 production
ASSAY NOTES: ET-1 assay: inhibitory effect on TGF-b induced endothelin-1 production
Format: cell-based
MEASUREMENT CONTEXT: Homo sapiens, Fibroblast; fibroblasts, stimulant (TGFb, serum, LPA etc), ET-1 in media by ELISA, 4-parameter fit
Description: Assay of Inhibitory Effect on TGF-b Induced Endothelin-1 Production Fibroblasts (primary human lung and dermal, HFL-1, 3T3 etc) are seeded in 96-well plates at ˜15000 cells/well and serum starved for 0-48 hours. After media exchange, compounds serially diluted in DMSO are added to the cells. […] ET-1 is quantified using an ELISA kit (R&D Systems). The amount of ET-1 produced in the assay wells are back-calculated using the ELISA standard. […]
TEST READOUT: EC50

Dear colleague, I am looking for the recorded EC50 of the following molecule: O=c1c2ncn(Cc3ccccc3)c2c(-c2ccc(F)cc2)cn1-c1ccc(OC(F)(F)F)cc1 [Compound 54] > 200 µM

Dear colleague, I am looking for the recorded EC50 of the following molecule: O=c1c(-c2ccc(F)cc2)c(-c2ccc(OC(F)(F)F)cc2)c1=O [Compound 666] < 50 µM

Dear colleague, I am looking for the recorded EC50 of the following molecule: Cc1cc(=O)n(-c2ccc(C(F)(F)F)cc2)cc1-c1cnn(C)c1 [Compound 228] 50 to 200 µM

Dear colleague, I am looking for the recorded EC50 of the following molecule: Cc1cc(=O)n(-c2ccc(C(F)(F)F)cc2C)cc1-c1ccccc1 [Compound 170] < 50 µM

Dear colleague, I am looking for the recorded EC50 of the following molecule: COCCOc1cc(=O)n(-c2ccc(OC(F)(F)F)cc2)cc1-c1cnn(C)c1 [Compound 144] > 200 µM

Dear colleague, I am looking for the recorded EC50 of the following molecule: Cc1cc(=O)n(-c2ccccc2C)cc1-c1ccc(F)cc1 [Compound 214] 50 to 200 µM

Dear colleague, I am looking for the recorded EC50 of the following molecule: Cc1cc(=O)n(-c2ccc(OC(F)(F)F)cc2)cc1-c1cccc2c1OC(F)(F)O2 [Compound 415] < 50 µM

Dear colleague, I am looking for the recorded EC50 of the following molecule: Cc1cc(=O)n(-c2ccc(OC(F)(F)F)cc2)cc1-c1ccc2c(c1)oc(=O)n2CCO [Compound 558] 50 to 200 µM

Continue with the molecule presented below.
Dear colleague, I am looking for the recorded EC50 of the following molecule: C[C@@H]1CCC(=O)N(c2ccccc2)C1 [Compound 84] > 200 µM

From: patent US10233195B2
